Reference for the values: PubChem BioAssay (Tox21)

- Target under test: Glucocorticoid receptor (Homo sapiens)
- Assay details: qHTS assay to identify small molecule agonists of the glucocorticoid receptor (GR) signaling pathway (AID 720691); on activation: on the % scale 0 is the no-effect control and ±100 the full control effect
- Condition notes: GR-bla HeLa, beta-lactamase reporter ratio, 18 h; series mostly up to 62.4 µM
Inconclusive results are not listed. Activity calls are given as the source filed them. The call rests on the fitted dose curve; in most records, active means well fitted activation curve with a large enough effect in the signal ratio in the repeat runs (not every such curve was filed as active); inconclusive means weak or mixed curves, or effect the other way; inactive means no such curve, though single readings can be large or run the other way; the % refers to the signal ratio.
The categories you may choose from are active, inactive

Query block: Write down the call the test reported for this compound. Item: Cc1cc(C(=C2C=CC(=Nc3ccc(S(=O)(=O)O)cc3S(=O)(=O)O)C=C2)c2ccc(Nc3ccc(S(=O)(=O)O)cc3)cc2)ccc1N
Result block: inactive

Query block: Write down the call the test reported for this compound. Item: CC(=O)[C@H]1CC[C@H]2[C@@H]3C[C@H](C)C4=CC(=O)CC[C@]4(C)[C@H]3[C@@H](O)C[C@]12C
Result block: active

Query block: Write down the call the test reported for this compound. Item: Cc1ccc(/C=N/n2c(-c3ccccc3)csc2=S)cc1
Result block: inactive

* * *

- Target under test: Androgen receptor (Homo sapiens)
- Assay details: qHTS assay to identify small molecule antagonists of the androgen receptor (AR) signaling pathway using the MDA cell line in the presence of 0.5 nM R1881 (AID 1259243); further: nearly all actives have a fitted effect of over 50% in size; further: potency means the concentration at half of the fitted maximal effect
- Condition notes: MDA-kb2 MMTV-luciferase, R1881 0.5 nM, 16 h; series mostly up to 42.5 µM
Records with an inconclusive call do not appear. Calls of active or inactive are those of the source. The call rests on the fitted dose curve; in most records, active means well fitted inhibition curve with a large enough effect in the repeat runs; inconclusive means weak or mixed curves; inactive means no such curve, though single readings can be large or run the other way.
Test readout: Potency

# Compound, Potency
measured = [
    ("C=CC(=C)CCCC(C)(C)OC(C)=O", "inactive"),
    ("Cc1c(C(=O)NN2CCCCC2)nn(-c2ccc(Cl)cc2Cl)c1-c1ccc(Cl)cc1", "26.6 µM (active)"),
    ("OCC1CC=CCC1 (stereo unspecified)", "inactive"),
    ("CC(=O)OCC(=O)[C@H]1CC[C@H]2[C@@H]3CCC4=CC(=O)CC[C@]4(C)[C@H]3CC[C@]12C", "inactive"),
    ("COCc1c(C(C)C)nc(C(C)C)c(/C=C/[C@@H](O)C[C@@H](O)CC(=O)O)c1-c1ccc(F)cc1", "inactive"),
]

Query block: Please provide the recorded Potency for Oc1ccc(Nc2ccccc2)cc1 , tested on Androgen receptor (Homo sapiens).
Result block: 30.6 µM (active)

* * *

- Assay details: qHTS assay to identify small molecule antagonists of the sonic hedgehog signaling (Shh) pathway (AID 1259369); further: nearly all actives have a fitted effect of over 45% in size; further: potency means the concentration at half of the fitted maximal effect
- Condition notes: NIH/3T3 Gli1-Luc reporter, Shh antagonist, luminescence 24 h; series mostly up to 92.4 µM
Results filed as inconclusive are left out. Active and inactive are the calls of the source. The call rests on the fitted dose curve.
Test readout: Potency

# Compound, Potency
data = [
    ("CC(C)CCCCCCOC(=O)CCCCC(=O)OCCCCCCC(C)C", "inactive"),
    ("CC1=CC(O)CC(C)(C)C1 (stereo not given)", "inactive"),
    ("CC1CC(O)CC(C)(C)C1 (stereo not given)", "inactive"),
    ("CC(=O)[C@H]1CC[C@H]2[C@@H]3C=CC4=CC(=O)CC[C@@]4(C)[C@@H]3CC[C@]12C", "11.9 µM (active)"),
]

With those in mind, consider the next compound.
Query block: Sample COC(=O)[C@@H]1CC2=CC(=O)CC[C@]2(C)[C@@]23O[C@@H]2C[C@@]2(C)[C@@H](CC[C@@]24CCC(=O)O4)[C@H]13 — what was its Potency?
Result block: inactive

* * *

- Assay details: qHTS assay to identify small molecule antagonists of the constitutive androstane receptor (CAR) signaling pathway - cell viability counter screen (AID 1224837); further: nearly all actives have a fitted effect of over 45% in size
- Condition notes: HepG2-CYP2B6-hCAR viability, CellTiter-Fluor, 23 h, co-treated with 50 nM CITCO; series mostly up to 92.4 µM
Inconclusive results are not listed. Activity calls are given as the source filed them. Calls come from the whole dose curve; as a rule, active = well fitted cell-killing curve with a large enough effect in the repeat runs; inconclusive = weak or mixed curves, or effect the other way; inactive = flat fitted curve, though single readings scatter.
The categories you may choose from are label 1 for active, label 0 for inactive

Query block: Write down the call the test reported for this molecule. Item: CN1CCCN=C1/C=C/c1cccs1
Result block: label 0

Query block: Write down the call the test reported for this molecule. Item: COC(=O)c1cc(Cl)ccc1NS(=O)(=O)C(F)(F)F
Result block: label 0

Query block: Write down the call the test reported for this molecule. Item: CCn1cc(C(=O)O)c(=O)c2cc(F)c(N3CCNCC3)nc21
Result block: label 0

Query block: Write down the call the test reported for this molecule. Item: CO/N=C1\CN(c2nc3c(cc2F)c(=O)c(C(=O)O)cn3C2CC2)CC1CN (configuration not stated)
Result block: label 0

Query block: Write down the call the test reported for this molecule. Item: O=C(c1ccc(O)cc1)c1ccc(Cl)cc1
Result block: label 0

Query block: Write down the call the test reported for this molecule. Item: O=C(N[C@@H](c1ccccc1)[C@@H]1CCCCN1)c1cccc(C(F)(F)F)c1Cl
Result block: label 1

Query block: Write down the call the test reported for this molecule. Item: CO[C@@]12[C@H](COC(N)=O)C3=C(C(=O)C(C)=C(N)C3=O)N1C[C@@H]1N[C@@H]12
Result block: label 1

Query block: Write down the call the test reported for this molecule. Item: NC(=O)Nc1ccc(Cl)cc1
Result block: label 0

Query block: Write down the call the test reported for this molecule. Item: CCCOC(=O)c1ccc(N)cc1
Result block: label 0

Query block: Write down the call the test reported for this molecule. Item: c1cc[c]([Bi]([c]2ccccc2)[c]2ccccc2)cc1
Result block: label 0

Query block: Write down the call the test reported for this molecule. Item: CC#N
Result block: label 0

Query block: Write down the call the test reported for this molecule. Item: Cn1c(=O)c2c(ncn2CC(=O)O)n(C)c1=O
Result block: label 0

Query block: Write down the call the test reported for this molecule. Item: CC1C2CC(CC2C2CCCC(O)C2)C1(C)C (configuration not stated)
Result block: label 0

Query block: Write down the call the test reported for this molecule. Item: CCCCCCCCCOC(C)=O
Result block: label 0

Query block: Write down the call the test reported for this molecule. Item: COc1cc2[nH]c(=O)[nH]c(=O)c2cc1OC
Result block: label 0

Query block: Write down the call the test reported for this molecule. Item: Nc1ccc(Cl)cc1[N+](=O)[O-]
Result block: label 0

Query block: Write down the call the test reported for this molecule. Item: CC(=O)Nc1ccc(N)cc1
Result block: label 0

Query block: Write down the call the test reported for this molecule. Item: COc1ccc(C(=O)c2cccc(O)c2)c(OC)c1
Result block: label 0

Query block: Write down the call the test reported for this molecule. Item: C/C(=N/NC(=O)c1ccncc1)C(=O)O
Result block: label 0

Query block: Write down the call the test reported for this molecule. Item: CCCCN(CCCC)C(=S)SSC(=S)N(CCCC)CCCC
Result block: label 0

Query block: Write down the call the test reported for this molecule. Item: CCCCOC(=O)CCS
Result block: label 0

Query block: Write down the call the test reported for this molecule. Item: CCOC(=O)C(C)Oc1ccc(Oc2nc3ccc(Cl)cc3o2)cc1 (configuration not stated)
Result block: label 0

Query block: Write down the call the test reported for this molecule. Item: CC(C)(CCl)c1ccccc1
Result block: label 0

Query block: Write down the call the test reported for this molecule. Item: O=C1NCCN1
Result block: label 0

Query block: Write down the call the test reported for this molecule. Item: CCC(=O)OC/C=C/c1ccccc1
Result block: label 0

Query block: Write down the call the test reported for this molecule. Item: c1cnc2c(n1)CCCC2
Result block: label 0

Query block: Write down the call the test reported for this molecule. Item: O=C(O)Cc1ccc(-c2ccccc2)cc1
Result block: label 0

Query block: Write down the call the test reported for this molecule. Item: CCCCC(=O)O[C@]1(C(=O)CO)CC[C@H]2[C@@H]3CCC4=CC(=O)CC[C@]4(C)[C@H]3[C@@H](O)C[C@@]21C
Result block: label 0

Query block: Write down the call the test reported for this molecule. Item: Nc1nccs1
Result block: label 0

Query block: Write down the call the test reported for this molecule. Item: CCOC(=N)CC(=O)OCC
Result block: label 0

Query block: Write down the call the test reported for this molecule. Item: CC(C)CCCCCOC(=O)CCCCC(=O)OCCCCCC(C)C
Result block: label 0

Query block: Write down the call the test reported for this molecule. Item: CCC(C)=O
Result block: label 0

Query block: Write down the call the test reported for this molecule. Item: CCCCN(CCCC)CCCOC(=O)c1ccc(N)cc1
Result block: label 0

Query block: Write down the call the test reported for this molecule. Item: COc1ccc([C@@H]2Sc3ccccc3NC(=O)[C@@H]2O)cc1
Result block: label 0

Query block: Write down the call the test reported for this molecule. Item: C[C@@H]1C[C@H]2[C@@H]3CCC4=CC(=O)C=C[C@]4(C)[C@@]3(F)[C@@H](O)C[C@]2(C)[C@H]1C(=O)CO
Result block: label 0

Query block: Write down the call the test reported for this molecule. Item: COc1ccccc1N=Nc1c(S(=O)(=O)O)cc2cc(S(=O)(=O)O)cc(NC(C)=O)c2c1O
Result block: label 1

Query block: Write down the call the test reported for this molecule. Item: CCCCCCCCCCCC[N+](C)(C)CCCS(=O)(=O)[O-]
Result block: label 0

Query block: Write down the call the test reported for this molecule. Item: CO[Si](C)(OC)OC
Result block: label 0

Query block: Write down the call the test reported for this molecule. Item: NCC1CCCC(CN)C1 (configuration not stated)
Result block: label 0

Query block: Write down the call the test reported for this molecule. Item: CC(CCc1ccc2c(c1)OCO2)NN (configuration not stated)
Result block: label 0

Query block: Write down the call the test reported for this molecule. Item: CC(=O)[C@H]1CC[C@H]2[C@@H]3C[C@H](C)C4=CC(=O)CC[C@]4(C)[C@H]3[C@@H](O)C[C@]12C
Result block: label 0

Query block: Write down the call the test reported for this molecule. Item: CC(C)(O)c1ccccc1CC[C@@H](SCC1(CC(=O)O)CC1)c1cccc(/C=C/c2ccc3ccc(Cl)cc3n2)c1
Result block: label 0

Query block: Write down the call the test reported for this molecule. Item: Nc1ccc(S(=O)(=O)O)c(N)c1
Result block: label 0

Query block: Write down the call the test reported for this molecule. Item: CN1C(=O)CC(C)(c2ccccc2)C1=O (configuration not stated)
Result block: label 0

Query block: Write down the call the test reported for this molecule. Item: C1COCO1
Result block: label 0

Query block: Write down the call the test reported for this molecule. Item: CCc1cccc(N(C)C(N)=Nc2cccc3ccccc23)c1
Result block: label 0

Query block: Write down the call the test reported for this molecule. Item: C=CCNc1nc(NCC=C)nc(N2CCN(C(c3ccc(F)cc3)c3ccc(F)cc3)CC2)n1
Result block: label 0

Query block: Write down the call the test reported for this molecule. Item: CC(=O)Nc1ccccc1C
Result block: label 0

Query block: Write down the call the test reported for this molecule. Item: CCCCC(=O)O[C@]1(C(=O)CO)[C@@H](C)C[C@H]2[C@@H]3CCC4=CC(=O)C=C[C@]4(C)[C@@]3(F)[C@@H](O)C[C@@]21C
Result block: label 0

Query block: Write down the call the test reported for this molecule. Item: O=C(O)c1cccnc1C(=O)O
Result block: label 0

Query block: Write down the call the test reported for this molecule. Item: CCCCCCCCCCCC(=O)[O][Sn]([CH2]CCC)([CH2]CCC)[O]C(=O)CCCCCCCCCCC
Result block: label 0

Query block: Write down the call the test reported for this molecule. Item: CC(N)CN (configuration not stated)
Result block: label 0
